Target: Tripartite terminase subunit 3 (Human betaherpesvirus 5, UniProt P16732)
Sequence (P16732 whole entry): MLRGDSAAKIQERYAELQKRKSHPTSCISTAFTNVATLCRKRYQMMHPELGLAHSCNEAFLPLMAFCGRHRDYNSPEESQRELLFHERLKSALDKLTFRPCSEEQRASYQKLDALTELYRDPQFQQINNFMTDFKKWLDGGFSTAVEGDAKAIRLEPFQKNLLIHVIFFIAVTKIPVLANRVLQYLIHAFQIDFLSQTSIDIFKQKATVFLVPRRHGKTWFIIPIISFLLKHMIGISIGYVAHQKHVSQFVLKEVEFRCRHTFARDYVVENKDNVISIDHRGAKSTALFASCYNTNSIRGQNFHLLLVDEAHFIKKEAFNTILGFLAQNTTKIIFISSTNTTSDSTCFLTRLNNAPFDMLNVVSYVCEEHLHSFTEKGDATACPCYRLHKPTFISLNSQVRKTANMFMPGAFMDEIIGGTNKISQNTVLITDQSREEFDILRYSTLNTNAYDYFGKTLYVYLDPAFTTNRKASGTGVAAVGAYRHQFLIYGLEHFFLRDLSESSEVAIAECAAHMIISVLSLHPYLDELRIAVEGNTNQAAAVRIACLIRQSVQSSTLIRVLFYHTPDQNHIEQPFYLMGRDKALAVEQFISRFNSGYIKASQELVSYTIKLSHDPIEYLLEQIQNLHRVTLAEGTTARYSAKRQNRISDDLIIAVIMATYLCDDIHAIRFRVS
Assay: Inhibition of Human Cytomegalovirus C-terminal UL89 […] using (5-tcggtgcgggcctcttcgctattacgccagctggcgaaagggggatgtgctgcaaggcga as a substrate preincubated for 15 mins followed by substrate addition and measured after 30 mins by plate reader endonuclease assay
pIC50: −log10 of the molar value.
Consider the following compounds and their measured pIC50 readings.
Measured parameter: pIC50

>>> observed_measurement("O=c1cc(Nc2ccc(-c3ccc(O)cc3)cc2)[nH]c(=O)n1O")
5.96
>>> observed_measurement("O=c1[nH]c2sc3c(c2c(=O)n1O)CCNC3")
6.17
>>> observed_measurement("O=c1[nH]c2c3c(sc2c(=O)n1O)CCCC3")
6.03
>>> observed_measurement("O=c1[nH]c2sc3c(c2c(=O)n1O)CCCC3")
6.10
>>> observed_measurement("O=C1c2ccccc2C(c2ccccc2F)C(=O)N1O (stereo unspecified)")
5.85
>>> observed_measurement("COc1cccc(-c2ccc(Nc3cc(=O)n(O)c(=O)[nH]3)cc2)c1")
5.92
